Tested on: SETVI, Green foxtail, Setaria viridis, (L.)Beau
MEASUREMENT_NOTES: Postemergence herbicidal evaluation (Example 147)
Type: in vivo
SETUP_CONDITIONS: rate 0.016 kg/ha, rating scale 0-9, two to three weeks after treatment
Method: Seedling plants were grown in jiffy flats for about two weeks. The test compounds were dispersed in 80/20 acetone/water mixtures containing 1.0% SUN-IT®II, a methylated seed oil, in sufficient quantities to provide the equivalent of about 0.016 to 0.032 kg per hectare of active compound when applied to the plants through a spray nozzle operating at 40 psi for a predetermined time. […]
# Postemergence herbicidal rating SETVI values compiled below

[
  {
    "MOLECULE": "C=CCN(C)S(=O)(=O)NC(=O)c1cc(-n2c(=O)cc(C(F)(F)F)n(C)c2=O)c(F)cc1Cl",
    "Postemergence herbicidal rating SETVI": 7.0
  },
  {
    "MOLECULE": "CN(Cc1cccc(Cl)c1)S(=O)(=O)NC(=O)c1cc(-n2c(=O)cc(C(F)(F)F)n(C)c2=O)c(F)cc1Cl",
    "Postemergence herbicidal rating SETVI": 7.0
  },
  {
    "MOLECULE": "CC(C)N(C(C)C)S(=O)(=O)NC(=O)c1cc(-n2c(=O)cc(C(F)(F)F)n(C)c2=O)c(F)cc1Cl",
    "Postemergence herbicidal rating SETVI": 8.0
  },
  {
    "MOLECULE": "CCCN(CC)S(=O)(=O)NC(=O)c1cc(-n2c(=O)cc(C(F)(F)F)n(C)c2=O)c(F)cc1Cl",
    "Postemergence herbicidal rating SETVI": 6.0
  },
  {
    "MOLECULE": "CCC(C)N(C)S(=O)(=O)NC(=O)c1cc(-n2c(=O)cc(C(F)(F)F)n(C)c2=O)c(F)cc1Cl (stereo not drawn)",
    "Postemergence herbicidal rating SETVI": 5.0
  },
  {
    "MOLECULE": "Cn1c(C(F)(F)F)cc(=O)n(-c2cc(C(=O)NS(=O)(=O)NC(C)(C)C)c(Cl)cc2F)c1=O",
    "Postemergence herbicidal rating SETVI": 8.0
  },
  {
    "MOLECULE": "CCOC(=O)CN(C)S(N)(=O)=O",
    "Postemergence herbicidal rating SETVI": 6.4
  },
  {
    "MOLECULE": "C#CCN(C)S(=O)(=O)NC(=O)c1cc(-n2c(=O)cc(C(F)(F)F)n(C)c2=O)c(F)cc1Cl",
    "Postemergence herbicidal rating SETVI": 1.0
  },
  {
    "MOLECULE": "CCCCN(C)S(=O)(=O)NC(=O)c1cc(-n2c(=O)cc(C(F)(F)F)n(C)c2=O)c(F)cc1Cl",
    "Postemergence herbicidal rating SETVI": 7.0
  },
  {
    "MOLECULE": "CN(CCC#N)S(=O)(=O)NC(=O)c1cc(-n2c(=O)cc(C(F)(F)F)n(C)c2=O)c(F)cc1Cl",
    "Postemergence herbicidal rating SETVI": 7.0
  },
  {
    "MOLECULE": "CNS(=O)(=O)NC(=O)c1cc(-n2c(=O)cc(C(F)(F)F)n(C)c2=O)c(F)cc1Cl",
    "Postemergence herbicidal rating SETVI": 6.0
  },
  {
    "MOLECULE": "CC(C)N(C)S(=O)(=O)NC(=O)c1cc(-n2c(=O)cc(C(F)(F)F)n(N)c2=O)c(F)cc1Cl",
    "Postemergence herbicidal rating SETVI": 5.0
  },
  {
    "MOLECULE": "Cn1c(C(F)(F)F)cc(=O)n(-c2cc(C(=O)NS(=O)(=O)NC3CCCC3)c(Cl)cc2F)c1=O",
    "Postemergence herbicidal rating SETVI": 8.0
  },
  {
    "MOLECULE": "C#CCNS(=O)(=O)NC(=O)c1cc(-n2c(=O)cc(C(F)(F)F)n(C)c2=O)c(F)cc1Cl",
    "Postemergence herbicidal rating SETVI": 4.0
  },
  {
    "MOLECULE": "CCC(C)NS(=O)(=O)NC(=O)c1cc(-n2c(=O)cc(C(F)(F)F)n(C)c2=O)c(F)cc1Cl (stereo not drawn)",
    "Postemergence herbicidal rating SETVI": 8.0
  }
]
